Conditions: 298.15 K; 50000 kPa; Liquid; Vibrating tube method
Reported mass density by item:
Answer in kg/m3, number only, no unit symbol.

CCCC[n+]1ccccc1.F[B-](F)(F)F [1-butylpyridinium tetrafluoroborate] ... 1235.32
CCCC[n+]1cccc(C)c1.N#C[N-]C#N [1-butyl-3-methylpyridinium dicyanamide] ... 1067.37
CCC[n+]1ccccc1Oc1ccc(Cl)c[n+]1CCOS(=O)(=O)[O-].F[B-](F)(F)F ... 1273.47

Below: the item to evaluate.
// recorded mass density for CCCCCCCC[n+]1cccc(C)c1.F[B-](F)(F)F [N-octyl-3-methylpyridinium tetrafluoroborate] : 1118.65

---

Reported mass density by item:
Conditions: 308.15 K; 15000 kPa; Liquid; Vibrating tube method
Numbers after ± are expanded uncertainties.

CCC[n+]1ccccc1Oc1ccc(Cl)c[n+]1CCOS(=O)(=O)[O-].F[B-](F)(F)F ... 1252.6 ± 0.59 kg/m3

// recorded mass density for CCCC[n+]1ccccc1.O=S(=O)([O-])C(F)(F)F [1-butylpyridinium trifluoromethanesulfonate] : 1316.6 ± 0.68 kg/m3

// recorded mass density for CCCC[n+]1cccc(C)c1.N#C[N-]C#N [1-butyl-3-methylpyridinium dicyanamide] : 1049.14 ± 0.97 kg/m3

// recorded mass density for CCCC[n+]1ccccc1.F[B-](F)(F)F [1-butylpyridinium tetrafluoroborate] : 1214.09 ± 0.53 kg/m3

// recorded mass density for CCCCCCCC[n+]1cccc(C)c1.F[B-](F)(F)F [N-octyl-3-methylpyridinium tetrafluoroborate] : 1096.91 ± 1.1 kg/m3

---

Reported mass density by item:
Settings: 303.15 K; 40000 kPa; Liquid; Vibrating tube method
Answer in kg/m3, number only, no unit symbol.

Completed entries (count: 3):
CCCC[n+]1ccccc1.O=S(=O)([O-])C(F)(F)F [1-butylpyridinium trifluoromethanesulfonate] ... 1332.93
CCC[n+]1ccccc1Oc1ccc(Cl)c[n+]1CCOS(=O)(=O)[O-].F[B-](F)(F)F ... 1266.35
CCCCCCCC[n+]1cccc(C)c1.F[B-](F)(F)F [N-octyl-3-methylpyridinium tetrafluoroborate] ... 1111.6

// recorded mass density for CCCC[n+]1cccc(C)c1.N#C[N-]C#N [1-butyl-3-methylpyridinium dicyanamide] : 1061.07

// recorded mass density for CCCC[n+]1ccccc1.F[B-](F)(F)F [1-butylpyridinium tetrafluoroborate] : 1228.08

---

Details: 313.15 K; 25000 kPa; Liquid; Vibrating tube method
MEASURED ATTRIBUTE: mass density (kg/m3)
Answer in kg/m3, number only, no unit symbol.

Completed entries (count: 2):
CCCC[n+]1ccccc1.F[B-](F)(F)F [1-butylpyridinium tetrafluoroborate] ... 1215.28
CCC[n+]1ccccc1Oc1ccc(Cl)c[n+]1CCOS(=O)(=O)[O-].F[B-](F)(F)F ... 1253.46

// recorded mass density for CCCC[n+]1cccc(C)c1.N#C[N-]C#N [1-butyl-3-methylpyridinium dicyanamide] : 1050.05

// recorded mass density for CCCCCCCC[n+]1cccc(C)c1.F[B-](F)(F)F [N-octyl-3-methylpyridinium tetrafluoroborate] : 1098.54

// recorded mass density for CCCC[n+]1ccccc1.O=S(=O)([O-])C(F)(F)F [1-butylpyridinium trifluoromethanesulfonate] : 1317.99

---

Conditions: 298.15 K; 40000 kPa; Liquid; Vibrating tube method
Reported mass density by item:
Answer in kg/m3, number only, no unit symbol.

// recorded mass density for CCCC[n+]1ccccc1.F[B-](F)(F)F [1-butylpyridinium tetrafluoroborate] : 1231.45

// recorded mass density for "CCC[n+]1ccccc1Oc1ccc(Cl)c[n+]1CCOS(=O)(=O)[O-].F[B-](F)(F)F" : 1269.81

// recorded mass density for CCCC[n+]1cccc(C)c1.N#C[N-]C#N [1-butyl-3-methylpyridinium dicyanamide] : 1064.1

// recorded mass density for CCCCCCCC[n+]1cccc(C)c1.F[B-](F)(F)F [N-octyl-3-methylpyridinium tetrafluoroborate] : 1114.56
